- protocol.notes: Apparent permeability in human Caco2 cells
- Assay type: ADME, cell-based
- test.settings: Caco-2
recorded.endpoint: Papp (×10⁻⁶ cm/s)
Please state the figure in ×10⁻⁶ cm/s; there is no need to write the unit.

Form field Papp, entry `CC(C)(C)C(=O)Nc1ncnc2c1cnn2CCN1CCCCC1` : 39
